Molecular target: 5-hydroxytryptamine receptor 1A (Homo sapiens)
Sequence (P08908 whole entry): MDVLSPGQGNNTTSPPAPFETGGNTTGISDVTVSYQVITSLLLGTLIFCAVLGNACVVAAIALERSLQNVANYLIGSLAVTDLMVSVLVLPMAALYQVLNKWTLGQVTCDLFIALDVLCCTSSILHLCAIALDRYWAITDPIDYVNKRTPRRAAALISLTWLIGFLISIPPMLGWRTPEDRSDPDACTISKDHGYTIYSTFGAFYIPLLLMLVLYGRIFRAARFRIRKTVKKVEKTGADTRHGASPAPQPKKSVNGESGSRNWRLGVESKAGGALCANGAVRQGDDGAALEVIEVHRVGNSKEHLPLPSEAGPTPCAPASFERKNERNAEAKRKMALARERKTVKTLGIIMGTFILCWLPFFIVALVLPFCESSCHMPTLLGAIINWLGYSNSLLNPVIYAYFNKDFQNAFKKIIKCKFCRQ
Quantity measured: pKi
Please keep in mind that pKi is minus log10 of the molar concentration; only the number is needed.

Asked: Quick check: pKi of COc1ccc2nc(-c3ccc(OCC(O)CNC(C)C)cc3)n(C)c(=O)c2c1 (racemic) ?
Given back: 5.26
